- Substrate: gfPET
- assay.procedure: Proxy for plastic degradation [Relative activity]
- condition.parameters: pH 8
Class (by Proxy for plastic degradation) -- small value (below 50%), mid value (50% to below 70%), large value (70% or more)

Please review the entries below; each comes with its answer.
protein	discrete.label
unnamed (protein) MANPYERGPDPTESSIEAVRGPFAVAQTTVSRLQADGFGGGTIYYPTDTSQGTFGAVAISPGFTAGQESIAWLGPRIASQGFVVITIDTITRLDQPDSRGRQLQAALDHLRTNSVVRNRIDPNRMAVMGHSMGGGGALSAAANNTSLEAAIPLQGWHTRKNWSSVRTPTLVVGAQLDTIAPVSSHSEAFYNSLPSDLDKAYMELRGASHDVSNTPDTTTAKYSIAWLKRFVDDDLRYEQFLCPAPDDFAISEYRSTCPF	mid value
unnamed (protein) MANPYERGPDPTESSIEAVRGPFAVAQTTVSRLQADGFGGGTIYYPTDTSQGTFGAVAISPGFTAGQESIAWLGPRIASQGFVVITIDTITRLDQPDSRGRQLQAALDHLRTNSVVRNRIDPNRMAVMGHSMGGGGALSAAANNTSLEAAIPLQGWHTRKNWSSVRTPTLVVGAQLDTYAPVSSHSEAFYNSLPSDLDKAYMELRGASHLVSNTPDTTTAKYSIAWLKRFVDDDLRYEQFLCPAPDDFAISEYRSTCPF	small value
unnamed (protein) MANPYERGPDPTESSIEAVRGPFAVAQTTVSRLQADGFGGGTIYYPTDTSQGTFGAVAISPGFTAGQESIAWLGPRIASQGFVVITIDTITRLDQPDSRGRQLQAALDHLRTNSVVRNRIDPNRMAVMGHSMGGGGALSAAANNTSLEAAIPLQGWHTRKNWSSVRTPTLVVGAQLDTIAPVSSHSEAFYNSLPSDLDKAYMELRGASHHVSNTPDTTTAKYSIAWLKRFVDDDLRYEQFLCPAPDDFAISEYRSTCPF	mid value
unnamed (protein) MANPYERGPDPTESSIEAVRGPFAVAQTTVSRLQADGFGGGTIYYPTDTSQGTFGAVAISPGFTAGQESIAWLGPRIASQGFVVITIDTITRLDQPDSRGRQLQAALDHLRTNSVVRNRIDPNRMAVMGHSMGGGGALSAAANNTSLEAAIPLQGWHTRKNWSSVRTPTLVVGAQLDTIAPVSSHSEAFYNSLPSDLDKAYMELRGASHFVSNTPDTTTAKYSIAWLKRFVDDDLRYEQFLCPAPDDFAISEYRSTCPF	mid value
unnamed (protein) MANPYERGPDPTESSIEAVRGPFAVAQTTVSRLQADGFGGGTIYYPTDTSQGTFGAVAISPGFTAGQESIAWLGPRIASQGFVVITIDTITRLDQPDSRGRQLQAALDHLRTNSVVRNRIDPNRMAVMGHSMGGGGALSAAANNTSLEAAIPLQGWHTRKNWSSVRTPTLVVGAQLDTIAPVSSHSEAFYNSLPSDLDKAYMELRGASHNVSNTPDTTTAKYSIAWLKRFVDDDLRYEQFLCPAPDDFAISEYRSTCPF	large value

Req: Entry unnamed (protein) MANPYERGPDPTESSIEAVRGPFAVAQTTVSRLQADGFGGGTIYYPTDTSQGTFGAVAISPGFTAGQESIAWLGPRIASQGFVVITIDTITRLDQPDSRGRQLQAALDHLRTNSVVRNRIDPNRMAVMGHSMGGGGALSAAANNTSLEAAIPLQGWHTRKNWSSVRTPTLVVGAQLDTIAPVSSHSEAFYNSLPSDLDKAYMELRGASHRVSNTPDTTTAKYSIAWLKRFVDDDLRYEQFLCPAPDDFAISEYRSTCPF belongs to which category?
Resp: large value

Req: Entry unnamed (protein) MANPYERGPDPTESSIEAVRGPFAVAQTTVSRLQADGFGGGTIYYPTDTSQGTFGAVAISPGFTAGQESIAWLGPRIASQGFVVITIDTITRLDQPDSRGRQLQAALDHLRTNSVVRNRIDPNRMAVMGHSMGGGGALSAAANNTSLEAAIPLQGWHTRKNWSSVRTPTLVVGAQLDTIAPVSSHSEAFYNSLPSDLDKAYMELRGASHTVSNTPDTTTAKYSIAWLKRFVDDDLRYEQFLCPAPDDFAISEYRSTCPF belongs to which category?
Resp: small value

Req: Entry unnamed (protein) MANPYERGPDPTESSIEAVRGPFAVAQTTVSRLQADGFGGGTIYYPTDTSQGTFGAVAISPGFTAGQESIAWLGPRIASQGFVVITIDTITRLDQPDSRGRQLQAALDHLRTNSVVRNRIDPNRMAVMGHSMGGGGALSAAANNTSLEAAIPLQGWHTRKNWSSVRTPTLVVGAQLDTIAPVSSHSEAFYNSLPSDLDKAYMELRGASHVVSNTPDTTTAKYSIAWLKRFVDDDLRYEQFLCPAPDDFAISEYRSTCPF belongs to which category?
Resp: mid value

Req: Entry unnamed (protein) MANPYERGPDPTESSIEAVRGPFAVAQTTVSRLQADGFGGGTIYYPTDTSQGTFGAVAISPGFTAGQESIAWLGPRIASQGFVVITIDTITRLDQPDSRGRQLQAALDHLRTNSVVRNRIDPNRMAVMGHSMGGGGALSAAANNTSLEAAIPLQGWHTRKNWSSVRTPTLVVGAQLDTFAPVSSHSEAFYNSLPSDLDKAYMELRGASHLVSNTPDTTTAKYSIAWLKRFVDDDLRYEQFLCPAPDDFAISEYRSTCPF belongs to which category?
Resp: small value

This collection of values is drawn from the PETadex activity labels (doi:10.1021/acscatal.2c02275).
